- target.under.test: SARS-CoV-2 M^pro (Severe acute respiratory syndrome coronavirus 2 (2019-nCoV) (SARS-CoV-2), UniProt P0DTD1)
- assay.comment: biochemical
- reported.conditions: read-out: Activity (% enzyme activity by fluorescence relative to initial enzyme activity), compound at 17 μM, duplicates, 20 min pre-incubation
Known remaining activity at 17 µM of a selection of molecules
measurement.type: remaining activity at 17 µM

{"molecule": "COc1c(CC=C(C)C)c(O)cc(O)c1-c1coc2cc(O)ccc2c1=O", "result": "> 80%"}
{"molecule": "CC(C)=CCc1c(O)cc2c(c1O)C(=O)C[C@@H](c1ccc(O)cc1)O2", "result": "> 80%"}
{"molecule": "COc1c(-c2ccc(O)c(O)c2)oc2c(C/C=C(\\C)CCC=C(C)C)c(O)cc(O)c2c1=O", "result": "> 80%"}
{"molecule": "COc1ccc2c(c1CC=C(C)C)O[C@H](c1ccc(O)cc1O)CC2 (stereo in doubt) [2′,4′-Dihydroxy-7-methoxy-8-prenylflavan]", "result": "> 80%"}
{"molecule": "CC(C)=CCc1c(-c2ccc(O)cc2O)oc2cc3c(c(O)c2c1=O)C=CC(C)(C)O3", "result": "10 to 80%"}
{"molecule": "COc1c(-c2cc(CC=C(C)C)c(O)c(CCC(C)CO)c2)oc2cc(O)cc(O)c2c1=O (stereo not shown)", "result": "> 80%"}
{"molecule": "CC(C)=CCC/C(C)=C/Cc1c(O)c(CC=C(C)C)cc(C2CC(=O)c3c(O)cc(O)cc3O2)c1O (stereo not shown)", "result": "> 80%"}
{"molecule": "CC(C)=CCc1c(O)cc(O)c2c1O[C@H](c1ccc(O)cc1)CC2=O", "result": "10 to 80%"}
{"molecule": "CC(C)=CCc1c(-c2ccc(O)cc2O)oc2c(CC=C(C)C)c(O)cc(O)c2c1=O", "result": "> 80%"}
{"molecule": "CC(C)=CCc1c(O)cc(O)c2c(=O)c(-c3ccc(O)cc3)coc12", "result": "> 80%"}
{"molecule": "CC(C)=CCc1cc([C@H]2Oc3cc(O)cc(O)c3C(=O)[C@@H]2O)cc(CC=C(C)C)c1O", "result": "> 80%"}
{"molecule": "CC(C)=CCc1cc(-c2cc(=O)c3c(O)cc(O)c(CC=C(C)C)c3o2)cc(O)c1O [Epimedokoreanin B]", "result": "> 80%"}
{"molecule": "C=C(C)[C@H](CC=C(C)C)Cc1c(O)c(CC=C(C)C)c(O)c2c1O[C@H](c1ccc(O)cc1O)[C@@H](O)C2=O", "result": "> 80%"}
{"molecule": "CC(C)=CCCC1(C)C=Cc2c(cc3c(c2O)C(=O)C[C@@H](c2ccc(O)cc2O)O3)O1 (stereo partly shown)", "result": "10 to 80%"}
{"molecule": "CC(C)=CCCC1(C)C=Cc2c(ccc([C@@H]3CC(=O)c4c(O)cc(O)cc4O3)c2O)O1 (stereo partly shown)", "result": "> 80%"}
{"molecule": "CC(C)=CCC/C(C)=C/Cc1cc(C2CC(=O)c3c(O)cc(O)cc3O2)c(O)cc1O (stereo not shown)", "result": "10 to 80%"}
